Answer each item with its documented Selectivity.
Molecular target: Phosphodiesterase 2 and 5 (PDE2 and PDE5) (Homo sapiens) (UniProt O76074+O00408)
Experiment: Relative inhibition of PDE2 and PDE5
Type: protein assay

Return reported Selectivity; argument: CCN1C(=O)c2c(nc(OC)n2Cc2ccc(O)c(Br)c2)N2C[C@@H](Cc3ccccc3)N=C12
7690

Return reported Selectivity; argument: CCN1C(=O)c2c(nc(OC)n2Cc2ccc(OC)c(Cl)c2)N2C[C@@H](Cc3ccccc3)N=C12
6250

Return reported Selectivity; argument: CCN1C(=O)c2c(nc(OC)n2Cc2ccc(OC)c(C#N)c2)N2C[C@@H](Cc3ccccc3)N=C12
909

Return reported Selectivity; argument: CCN1C(=O)c2c(nc(OCc3ccccc3)n2Cc2ccc(O)c(Cl)c2)N2C[C@@H](Cc3ccccc3)N=C12
4760

Return reported Selectivity; argument: CCN1C(=O)c2c(nc(C(N)=O)n2Cc2ccc(O)c(Cl)c2)N2C[C@@H](Cc3ccccc3)N=C12
3330

Return reported Selectivity; argument: CCN1C(=O)c2c(nc(OC)n2Cc2ccc(OC)c(Br)c2)N2C[C@@H](Cc3ccccc3)N=C12
4540

----------
Biological target: cGMP-specific 3',5'-cyclic phosphodiesterase (Homo sapiens)
Answer each item with its documented pIC50.
Reminder that pIC50 is minus the log10 of a molar concentration.

Return reported pIC50; argument: CCN1C(=O)c2c(nc(OC)n2Cc2ccc(O)c(Br)c2)N2C[C@@H](Cc3ccccc3)N=C12
8.89

Return reported pIC50; argument: CCN1C(=O)c2c(nc(C#Cc3ccccc3)n2Cc2ccc(O)cc2)N2C1=N[C@@H]1CCC[C@@H]12
9.52

Return reported pIC50; argument: CCOc1nc2c(n1Cc1ccc(OC)cc1)C(=O)N(CC)C1=N[C@@H]3CCC[C@@H]3N12
7.74

Return reported pIC50; argument: CCOc1nc2c(n1Cc1ccc(O)cc1)C(=O)N(CC)C1=N[C@@H]3CCC[C@@H]3N12
9.05

Return reported pIC50; argument: CCN1C(=O)c2c(nc(OC)n2Cc2ccc(O)c(C#N)c2)N2C[C@@H](Cc3ccccc3)N=C12
7.37

Return reported pIC50; argument: CCSc1nc2c(n1Cc1ccc(O)cc1)C(=O)N(CC)C1=N[C@@H]3CCC[C@@H]3N12
8.74

Return reported pIC50; argument: CCN1C(=O)c2c(nc(Cc3ccccc3)n2Cc2ccc(OC)c(Cl)c2)N2C1=N[C@@H]1CCC[C@@H]12
7.24

Return reported pIC50; argument: CCN1C(=O)c2c(nc(C(N)=O)n2Cc2ccc(O)c(Cl)c2)N2C[C@@H](Cc3ccccc3)N=C12
8.52

----------
Molecular target: Phosphodiesterase 3 and 5 (PDE3 and PDE5) (Homo sapiens) (UniProt O76074+Q14432+Q13370)
Test: Relative inhibition of PDE3 and PDE5
Format: protein assay
Answer each item with its documented Selectivity.
Respond numerically, and do not add a unit to the figure.

Return reported Selectivity; argument: CCN1C(=O)c2c(nc(C(N)=O)n2Cc2ccc(O)c(Cl)c2)N2C[C@@H](Cc3ccccc3)N=C12
3330

Return reported Selectivity; argument: CCN1C(=O)c2c(nc(OC)n2Cc2ccc(O)c(Br)c2)N2C[C@@H](Cc3ccccc3)N=C12
7690

Return reported Selectivity; argument: CCN1C(=O)c2c(nc(OC)n2Cc2ccc(OC)c(Br)c2)N2C[C@@H](Cc3ccccc3)N=C12
4540

Return reported Selectivity; argument: CCN1C(=O)c2c(nc(OC)n2Cc2ccc(OC)c(Cl)c2)N2C[C@@H](Cc3ccccc3)N=C12
6250

Return reported Selectivity; argument: CCN1C(=O)c2c(nc(OC)n2Cc2ccc(OC)c(C#N)c2)N2C[C@@H](Cc3ccccc3)N=C12
909

Return reported Selectivity; argument: CCN1C(=O)c2c(nc(OCc3ccccc3)n2Cc2ccc(O)c(Cl)c2)N2C[C@@H](Cc3ccccc3)N=C12
4760
